Data origin, for the record: paper PMC7490411

assay-remarks: in vivo pharmacokinetic study
Parameters: species or system rats
test-conditions: male, Sprague-Dawley, rat, plasma, iv; Rats, I.V. 1mg/kg
reported-endpoint: Cmax (ng/mL)
Please respond with the number in ng/mL and leave the unit unwritten.

Query: I have this compound here, `C=CC(=O)Nc1cc(Nc2cc(-c3cccc(NC(=O)c4cc5c(s4)CCCC5)c3C)cn(C)c2=O)ccc1N1CCN(CC)CC1` , and I need its recorded Cmax.
Response: 1080

----------
assay-remarks: in vivo pharmacokinetic study
Set-up: species or system rats
test-conditions: male, Sprague-Dawley, rat, plasma, po; Rats, P.O. 10mg/kg
reported-endpoint: Cmax (ng/mL)
Please respond with the number in ng/mL and leave the unit unwritten.

Query: I have this molecule here, C=CC(=O)Nc1cc(Nc2cc(-c3cccc(NC(=O)c4cc5c(s4)CCCC5)c3C)cn(C)c2=O)ccc1N1CCN(CC)CC1 [CHMFL-BTK-85] , and I need its recorded Cmax.
Response: 296
